- measurement.target: rat CB2 receptor (rCB2) (Rattus norvegicus)
- Sequence (Q9QZN9 1-360): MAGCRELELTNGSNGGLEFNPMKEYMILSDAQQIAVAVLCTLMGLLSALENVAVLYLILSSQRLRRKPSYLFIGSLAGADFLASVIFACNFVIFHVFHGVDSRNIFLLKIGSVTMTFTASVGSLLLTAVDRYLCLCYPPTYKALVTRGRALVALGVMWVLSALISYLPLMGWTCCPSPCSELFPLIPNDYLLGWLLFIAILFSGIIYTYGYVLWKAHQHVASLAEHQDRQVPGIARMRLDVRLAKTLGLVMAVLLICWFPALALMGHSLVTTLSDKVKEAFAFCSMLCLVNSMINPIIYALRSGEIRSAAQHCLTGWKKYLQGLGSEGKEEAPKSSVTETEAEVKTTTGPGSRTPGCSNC
- assay.details: cell-based
- Assay type: cell-based
- test.settings: agonist or inverse agonist at rCB2
experimental.readout: +/− RCB2

Answered cases to consult:
CC(C)C[C@H](NC(=O)c1nc(C2CCCCC2)n2c1CN(C)CCC2)C(N)=O ... +
C=Cc1nc(C(=O)N[C@H](C(=O)NC)C(C)(C)C)c2n1CCN(C)C2 ... −
CNC(=O)[C@H](CC(C)C)NC(=O)c1nc(-c2cc(F)ccc2F)n2c1CN(C)CCC2 ... −
CN1CCCn2c(-c3cc(F)c(F)cc3F)nc(C(=O)N[C@@H](CC(C)(C)C)C(N)=O)c2C1 ... +
CNC(=O)[C@@H](NC(=O)c1nc(Cl)n2c1CN(C)CCC2)C(C)(C)C ... +

Entry `CNC(=O)[C@@H](NC(=O)c1nc(-c2cccc(C#N)c2)n2c1CN(C)CC2)C(C)(C)C` : reported +/− RCB2 = ?
−

Field entry: `CN1CCn2c(-c3ccc(Cl)cc3F)nc(C(=O)N3CCC(n4c(=O)[nH]c5cc(Cl)ccc54)CC3)c2C1`
−

Would you mind doing `CNC(=O)[C@@H](NC(=O)c1nc(C2=CCCCCC2)n2c1CN(C)CCC2)C(C)(C)C` as well?
−

And the next one, `CC(C)(C)OC(=O)N1CCn2c(-c3ccccc3)nc(C(=O)NN3CCCCC3)c2C1` ?
−

Subsequent entry: `CNC(=O)[C@H](CC(C)(C)C)NC(=O)c1nc(-c2cc(Cl)c(F)cc2F)n2c1CN(C)CCC2`
+

Try this compound next: `CNC(=O)[C@@H](NC(=O)c1nc(-c2ccccc2)n2c1CNCCC2)C(C)(C)O`
+

Moving on to the next compound: CC(C)(C)CC(=O)c1nc(-c2ccccc2)n2c1CNCC2 [Compound 291, 2,2,2-trifluoroacetate]
−

---

- measurement.target: rat CB2 receptor (rCB2) (Rattus norvegicus)
- assay.details: cell-based
- Assay type: cell-based
List of EC50 values.

Worked cases, answers included:
CNC(=O)[C@H](NC(=O)c1nc(-c2ccccc2)n2c1CN(C)CC2)C(C)(C)C ... > 10 µM
CCS(=O)(=O)N1CCn2c(-c3ccccc3)nc(C(=O)N[C@H](C)C3CCCCC3)c2C1 ... > 10 µM
CN1CCn2c(-c3ccccc3)nc(C(=O)NC3(CO)CCCC3)c2C1 ... > 10 µM

Which measured EC50 belongs to `CNC(=O)[C@@H](NC(=O)c1nc(-c2ccccc2)n2c1CN(Cc1nccs1)CC2)C(C)(C)C` , tested on rat CB2 receptor (rCB2) (Rattus norvegicus)?
> 10 µM

Likewise for CNC(=O)[C@@H](NC(=O)c1nc(-c2ccc(C3CC(=O)NN3)cc2)n2c1CN(C)CCC2)C(C)(C)C (stereo partly shown) ?
> 10 µM

Try the compound `CN1CCn2c(-c3ccc(Cl)cc3F)nc(C(=O)N3CCC(N4C(=O)Cc5ccccc54)CC3)c2C1`
> 10 µM

Lookup `CN1CCn2c(-c3ccccc3)nc(C(=O)N[C@H](CO)C(C)(C)C)c2C1`
> 10 µM

Could you do the same for `CNC(=O)[C@@H](NC(=O)c1nc(CCCN2CCOCC2)n2c1CN(C)CCC2)C(C)(C)C` , please?
> 10 µM

Another: `Cc1noc([C@@H](NC(=O)c2nc(-c3ccccc3)n3c2CNCC3)C(C)(C)C)n1`
> 10 µM

Same read-out for `CNC(=O)[C@@H](NC(=O)c1nc(-c2ccc(OC)c(F)c2)n2c1CN(C)CCC2)C(C)(C)C` ?
> 10 µM

What do you have for `CNC(=O)[C@@H](NC(=O)c1nc(-c2cccc(Cl)c2)n2c1CN(C)CCC2)C(C)(C)C` ?
> 10 µM

What do you have for `CNC(=O)[C@@H](NC(=O)c1nc(-c2ccc(F)cc2F)n2c1CN(C)CC2)C(C)(C)C` ?
> 10 µM

Let us now turn to `CN1CCn2c(-c3ccc(Cl)cc3F)nc(C(=O)N3CCC(C(N)=O)(N4CCOCC4)CC3)c2C1`
> 10 µM
